- TEST TARGET: T1, Full length recombinant HBcAg (rHBcAg) encompassing residues 1-183 (hepatitis B virus, UniProt P03146 1-183)
- T1 construct: range 1-183; also called hepatitis B virus core antigen
- T1 sequence (P03146 whole entry, the tested form may be a part): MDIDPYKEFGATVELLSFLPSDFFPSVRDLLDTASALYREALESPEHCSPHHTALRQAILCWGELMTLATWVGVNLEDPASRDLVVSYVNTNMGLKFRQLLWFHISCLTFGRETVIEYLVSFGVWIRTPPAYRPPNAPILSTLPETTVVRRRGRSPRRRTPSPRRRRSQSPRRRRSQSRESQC
- TEST: EIA, peptide coated 12.5 ug/ml, HBcAg 10 ug/ml
PROPERTY MEASURED: OD
Write your answer as a measured quantity: the number, then the unit.

// for each binder below, give its OD
1. VKPGASVKISCKASGYSFTG (also called Peptide # 25) [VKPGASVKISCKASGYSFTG (SEQ. ID. No. 28)]
2. ISCRASQSVSTSSYSYMHWY [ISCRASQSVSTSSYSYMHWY (SEQ. ID. No. 17)]
3. YNMNWVKQSHGKSLEWIGNI (also called Peptide # 27) [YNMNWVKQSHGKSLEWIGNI (SEQ. ID. No. 30)]
4. VKPGASVKLSCKASGYIFTS (also called Peptide # 2; Pept. #2) [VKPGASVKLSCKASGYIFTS (SEQ. ID. No. 5)]
5. CKASGYSFTGYNMNWVKQSH (also called Peptide # 26) [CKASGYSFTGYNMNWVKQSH (SEQ. ID. No. 29)]

Result block:
0.423 OD
0.514 OD
0.181 OD
0.913 OD
0.179 OD

Query block: Kindly indicate its recorded OD. Item: LAVSLGQRATISCRASQSVS [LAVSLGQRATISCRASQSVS (SEQ. ID. No. 16)]
Result block: 0.24 OD

Provenance of the data: patent US20020058247A1
